Target: PDGF-Ralpha (Homo sapiens, UniProt P16234)
Construct: made in house
Sequence (P16234 24-1089, species assumed): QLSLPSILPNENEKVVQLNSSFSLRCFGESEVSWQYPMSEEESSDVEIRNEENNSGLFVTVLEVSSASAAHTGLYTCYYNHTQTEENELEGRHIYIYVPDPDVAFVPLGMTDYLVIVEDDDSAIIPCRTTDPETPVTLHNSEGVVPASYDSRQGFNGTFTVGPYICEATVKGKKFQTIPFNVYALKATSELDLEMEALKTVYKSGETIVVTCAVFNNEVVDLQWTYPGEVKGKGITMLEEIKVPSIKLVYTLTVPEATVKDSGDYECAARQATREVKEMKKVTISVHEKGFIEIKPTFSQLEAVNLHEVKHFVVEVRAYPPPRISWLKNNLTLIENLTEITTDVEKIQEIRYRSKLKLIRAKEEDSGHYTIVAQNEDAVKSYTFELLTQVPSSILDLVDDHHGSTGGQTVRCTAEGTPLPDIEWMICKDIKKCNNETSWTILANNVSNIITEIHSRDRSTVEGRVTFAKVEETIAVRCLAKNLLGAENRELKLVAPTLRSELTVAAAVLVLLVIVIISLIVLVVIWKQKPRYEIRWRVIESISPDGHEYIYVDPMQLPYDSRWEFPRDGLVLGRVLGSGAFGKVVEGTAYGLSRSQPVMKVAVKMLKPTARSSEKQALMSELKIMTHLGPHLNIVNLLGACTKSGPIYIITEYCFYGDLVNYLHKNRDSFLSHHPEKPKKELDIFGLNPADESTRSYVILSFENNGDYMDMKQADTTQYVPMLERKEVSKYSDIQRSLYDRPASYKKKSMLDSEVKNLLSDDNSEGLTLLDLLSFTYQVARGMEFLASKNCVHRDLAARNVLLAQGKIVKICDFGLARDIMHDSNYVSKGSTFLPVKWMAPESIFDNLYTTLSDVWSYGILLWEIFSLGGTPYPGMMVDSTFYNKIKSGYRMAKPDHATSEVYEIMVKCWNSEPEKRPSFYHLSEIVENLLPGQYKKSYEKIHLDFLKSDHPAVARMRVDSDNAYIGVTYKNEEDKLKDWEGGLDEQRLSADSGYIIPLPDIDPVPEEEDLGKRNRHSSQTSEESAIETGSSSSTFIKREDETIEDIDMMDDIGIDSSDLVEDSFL
Experiment: PDGF-Ralpha kinase assay, 33P-ATP incorporation, residual activity
Format: biochemical
Conditions: tested at 25 micromolar
REPORTED_ENDPOINT: PDGFalpha

Example results:
[[record]]
molecule = "Nc1ncnc2c1ncn2[C@@H]1O[C@H](CN2C(=O)C(Cc3ccccc3)N(Cc3ccccc3[N+](=O)[O-])C2=O)[C@@H](O)[C@H]1O (some centres unmarked) [compound 212]"
target_desc = "PDGF-Ralpha (Homo sapiens, UniProt P16234)"
reported_endpoint = "PDGFalpha"
numeric_readout = 38

[[record]]
molecule = "Nc1ncnc2c1ncn2[C@@H]1O[C@H](CN2C(=O)C(Cc3ccccc3)N(Cc3cccs3)C2=O)[C@@H](O)[C@H]1O (some centres unmarked) [compound 605]"
target_desc = "PDGF-Ralpha (Homo sapiens, UniProt P16234)"
reported_endpoint = "PDGFalpha"
numeric_readout = 56

[[record]]
molecule = "CCCCCCCCOc1ccc(-c2nc3cc(C(N)=O)ccc3n2C[C@H]2O[C@@H](n3nnc(C(N)=O)c3-c3ccccc3)[C@H](O)[C@@H]2O)cc1 [compound 279]"
target_desc = "PDGF-Ralpha (Homo sapiens, UniProt P16234)"
reported_endpoint = "PDGFalpha"
numeric_readout = 85


1 = Nc1ncnc2c1ncn2[C@@H]1O[C@H](Cn2c(-c3ccc(OCc4ccccc4)cc3)nc3ccccc32)[C@@H](O)[C@H]1O [compound 912]
2 = CCn1c2ccccc2c2ccc(CN3C(=O)N(C[C@H]4O[C@@H](n5nnc(C(N)=O)c5-c5ccccc5)[C@H](O)[C@@H]4O)C(=O)C3Cc3ccccc3)cc21 (some centres unmarked) [compound 246]
Please let me know which one, 1 or 2 , has a lower measured PDGFalpha value. Give the label of your selection.
2

I = CCCc1c(C(N)=O)nnn1[C@@H]1O[C@H](Cn2c(-c3ccc(F)c(C(F)(F)F)c3)nc3cc(C(N)=O)ccc32)[C@@H](O)[C@H]1O [compound 456]
II = Nc1ncnc2c1ncn2[C@@H]1O[C@H](CN2C(=O)C(Cc3ccccc3)N(Cc3ccccc3Sc3ccc(Cl)cc3)C2=O)[C@@H](O)[C@H]1O (some centres unmarked) [compound 604]
III = Nc1ncnc2c1ncn2[C@@H]1O[C@H](CN2C(=O)C(Cc3ccccc3)N(Cc3cccn3S(=O)(=O)c3ccccc3)C2=O)[C@@H](O)[C@H]1O (some centres unmarked) [compound 223]
Hi! Can you put these in order of PDGFalpha, lowest number first? State the ranking by listing the labels in the requested order.
III, II, I
(III: 17, II: 46, I: 113)

----------
Biological target: VEGF-R2 (Homo sapiens, UniProt P35968)
Construct: made in house
Sequence (P35968 20-1356): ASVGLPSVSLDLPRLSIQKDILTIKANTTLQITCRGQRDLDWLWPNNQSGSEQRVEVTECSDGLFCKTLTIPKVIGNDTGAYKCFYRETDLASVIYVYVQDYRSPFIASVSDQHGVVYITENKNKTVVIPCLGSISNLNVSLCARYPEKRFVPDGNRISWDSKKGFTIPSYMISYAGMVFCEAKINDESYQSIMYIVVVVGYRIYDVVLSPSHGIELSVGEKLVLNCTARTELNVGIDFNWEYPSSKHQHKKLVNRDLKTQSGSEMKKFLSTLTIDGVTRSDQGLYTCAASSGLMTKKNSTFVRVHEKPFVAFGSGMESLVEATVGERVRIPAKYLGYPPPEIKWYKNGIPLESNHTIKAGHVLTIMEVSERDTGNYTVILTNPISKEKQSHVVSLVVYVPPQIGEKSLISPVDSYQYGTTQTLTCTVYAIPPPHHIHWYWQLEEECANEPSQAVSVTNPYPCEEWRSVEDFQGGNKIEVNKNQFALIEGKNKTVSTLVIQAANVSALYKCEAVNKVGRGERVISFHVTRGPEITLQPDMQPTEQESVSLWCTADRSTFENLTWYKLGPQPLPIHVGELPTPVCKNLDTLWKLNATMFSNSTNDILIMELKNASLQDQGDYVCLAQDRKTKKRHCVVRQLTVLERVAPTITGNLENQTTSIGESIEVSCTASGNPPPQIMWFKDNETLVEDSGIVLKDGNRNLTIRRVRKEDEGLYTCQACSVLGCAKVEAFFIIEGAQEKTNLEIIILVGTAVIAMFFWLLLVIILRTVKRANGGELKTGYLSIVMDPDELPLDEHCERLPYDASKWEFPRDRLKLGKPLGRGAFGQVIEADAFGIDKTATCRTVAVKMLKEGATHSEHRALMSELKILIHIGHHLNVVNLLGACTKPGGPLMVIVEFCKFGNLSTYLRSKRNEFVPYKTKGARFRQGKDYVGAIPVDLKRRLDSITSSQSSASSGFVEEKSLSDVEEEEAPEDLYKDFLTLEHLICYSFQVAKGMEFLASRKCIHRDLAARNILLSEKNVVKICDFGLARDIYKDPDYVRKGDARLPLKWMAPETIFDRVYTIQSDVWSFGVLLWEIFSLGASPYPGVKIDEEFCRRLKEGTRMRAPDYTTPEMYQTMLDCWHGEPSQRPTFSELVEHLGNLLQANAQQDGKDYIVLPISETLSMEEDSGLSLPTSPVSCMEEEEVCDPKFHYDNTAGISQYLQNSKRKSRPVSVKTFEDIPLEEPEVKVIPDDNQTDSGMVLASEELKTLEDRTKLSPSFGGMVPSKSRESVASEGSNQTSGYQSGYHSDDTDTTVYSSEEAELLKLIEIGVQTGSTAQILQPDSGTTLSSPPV
Assay: VEGF-R2 kinase assay, 33P-ATP incorporation, residual activity
Type: biochemical
Design: key: % residual kinase activity (100% = no inhibitor)
Conditions: tested at 25 micromolar
REPORTED_ENDPOINT: VEGF

// below: answered compounds
[[record]]
compound = "CCCc1c(C(N)=O)nnn1[C@@H]1O[C@H](Cn2c(-c3ccc(F)c(C(F)(F)F)c3)nc3cc(C(N)=O)ccc32)[C@@H](O)[C@H]1O"
reported_endpoint = "VEGF"
numeric_readout = 96

[[record]]
compound = "Nc1ncnc2c1ncn2[C@@H]1O[C@H](Cn2c(-c3ccc(OCc4ccccc4)cc3)nc3ccccc32)[C@@H](O)[C@H]1O"
reported_endpoint = "VEGF"
numeric_readout = 44

[[record]]
compound = "Nc1ncnc2c1ncn2[C@@H]1O[C@H](CN2C(=O)C(Cc3ccccc3)N(Cc3cccs3)C2=O)[C@@H](O)[C@H]1O (some centres unmarked)"
reported_endpoint = "VEGF"
numeric_readout = 14

[[record]]
compound = "Nc1ncnc2c1ncn2[C@@H]1O[C@H](CN2C(=O)C(Cc3ccccc3)N(Cc3ccccc3Sc3ccc(Cl)cc3)C2=O)[C@@H](O)[C@H]1O (some centres unmarked)"
reported_endpoint = "VEGF"
numeric_readout = 18


A = Nc1ncnc2c1ncn2[C@@H]1O[C@H](CN2C(=O)C(Cc3ccccc3)N(Cc3cccn3S(=O)(=O)c3ccccc3)C2=O)[C@@H](O)[C@H]1O (some centres unmarked)
B = CCCc1c(C(N)=O)nnn1[C@@H]1O[C@H](CNCc2nc3cc(C(N)=O)ccc3n2-c2ccc(-c3ccccc3)cc2)[C@@H](O)[C@H]1O
C = CCCCCCCCSc1nc2cc(C(N)=O)ccc2n1C[C@H]1O[C@@H](n2nnc(C(N)=O)c2-c2ccccc2)[C@H](O)[C@@H]1O
D = CCCCCCCCOc1ccc(-c2nc3cc(C(N)=O)ccc3n2C[C@H]2O[C@@H](n3nnc(C(N)=O)c3-c3ccccc3)[C@H](O)[C@@H]2O)cc1
Thanks in advance: please rank these 4 entries by VEGF, highest to lowest. # answer = labels listed in requested order
C, B, D, A
(C: 101, B: 54, D: 31, A: 11)
